ASSAY_NOTES: Cytotoxicity in Vero E6 cells
REPORTED_CONDITIONS: African green monkey
Recorded CC50 by entry
QUANTITY: CC50

C#CCCC(=O)Nc1ccc(COC(=O)N[C@@H](CC(C)C)C(=O)N[C@@H](C[C@@H]2CCNC2=O)C(=O)C(=O)NC2CC2)cc1 = > 250 µM
CC(C)C[C@H](NC(=O)OCc1ccc(NC(=O)CCC(=O)NCCOCCOCCNc2cccc3c2C(=O)N(C2CCC(=O)NC2=O)C3=O)cc1)C(=O)N[C@@H](C[C@@H]1CCNC1=O)C(=O)C(=O)NC1CC1 (some centres unmarked) = > 250 µM

###

ASSAY_NOTES: Cytotoxicity in Calu-3 cells
Format: cell-based
REPORTED_CONDITIONS: human
QUANTITY: CC50

C#CCCC(=O)Nc1ccc(COC(=O)N[C@@H](CC(C)C)C(=O)N[C@@H](C[C@@H]2CCNC2=O)C(=O)C(=O)NC2CC2)cc1 = > 250 µM
CC(C)C[C@H](NC(=O)OCc1ccc(NC(=O)CCC(=O)NCCOCCOCCNc2cccc3c2C(=O)N(C2CCC(=O)NC2=O)C3=O)cc1)C(=O)N[C@@H](C[C@@H]1CCNC1=O)C(=O)C(=O)NC1CC1 (some centres unmarked) = > 250 µM

###

ASSAYED_SYSTEM: UniProt P07384
Sequence (P07384 whole entry): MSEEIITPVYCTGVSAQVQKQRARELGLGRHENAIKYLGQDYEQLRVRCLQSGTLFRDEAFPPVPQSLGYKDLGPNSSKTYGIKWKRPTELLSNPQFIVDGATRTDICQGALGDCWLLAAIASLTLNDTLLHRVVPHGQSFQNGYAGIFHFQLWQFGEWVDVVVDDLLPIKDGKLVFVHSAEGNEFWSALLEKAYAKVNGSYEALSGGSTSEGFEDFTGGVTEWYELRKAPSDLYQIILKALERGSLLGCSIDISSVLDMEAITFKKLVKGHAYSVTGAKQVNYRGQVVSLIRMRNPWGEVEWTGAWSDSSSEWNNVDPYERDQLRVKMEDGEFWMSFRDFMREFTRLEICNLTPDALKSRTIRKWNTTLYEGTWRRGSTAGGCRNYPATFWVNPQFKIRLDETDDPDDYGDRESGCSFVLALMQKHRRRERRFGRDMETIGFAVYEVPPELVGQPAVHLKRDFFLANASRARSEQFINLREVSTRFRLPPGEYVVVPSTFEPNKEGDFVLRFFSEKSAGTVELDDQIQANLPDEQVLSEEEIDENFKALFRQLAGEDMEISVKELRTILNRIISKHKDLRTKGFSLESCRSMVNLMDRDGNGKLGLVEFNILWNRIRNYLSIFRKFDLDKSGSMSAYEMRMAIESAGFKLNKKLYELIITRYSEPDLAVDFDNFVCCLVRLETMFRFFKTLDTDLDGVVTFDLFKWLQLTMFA
Sequence (P04632 whole entry partner): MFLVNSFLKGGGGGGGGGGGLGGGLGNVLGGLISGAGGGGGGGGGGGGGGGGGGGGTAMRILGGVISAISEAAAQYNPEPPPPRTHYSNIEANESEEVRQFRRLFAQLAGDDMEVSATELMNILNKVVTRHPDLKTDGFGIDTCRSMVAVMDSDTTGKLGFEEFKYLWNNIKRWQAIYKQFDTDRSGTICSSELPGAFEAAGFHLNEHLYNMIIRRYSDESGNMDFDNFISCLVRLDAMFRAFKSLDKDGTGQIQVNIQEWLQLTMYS
pIC50: −log10 of the molar value.
QUANTITY: pIC50

CC(C)C[C@H](NC(=O)OCc1ccccc1)C(=O)N[C@@H](CC1CCNC1=O)C(O)S(=O)(=O)O (stereo partly shown) = 7.13

###

The following compounds are listed with their measured pIC50 values.
ASSAYED_SYSTEM: SARS-CoV-2 M^pro (Severe acute respiratory syndrome coronavirus 2)
ASSAY_NOTES: FRET-based enzymatic assay, SARS-CoV-2 Mpro
Assay type: biochemical
pIC50: −log10 of the molar value.
QUANTITY: pIC50

CC(C)C[C@H](NC(=O)OCc1ccc(NC(=O)CCC(=O)NCCOCCOCCNc2cccc3c2C(=O)N(C2CCC(=O)NC2=O)C3=O)cc1)C(=O)N[C@@H](C[C@@H]1CCNC1=O)C(=O)C(=O)NC1CC1 (stereo partly shown) = 6.96
CC(C)C[C@H](NC(=O)[C@@H](NC(=O)OCc1ccccc1)C(C)C)C(=O)N[C@@H](C[C@@H]1CCNC1=O)C(=O)C(=O)NC1CC1 = 7.85
O=C(N[C@@H](Cc1ccc(F)cc1)C(=O)N[C@@H](C[C@@H]1CCNC1=O)C(=O)C(=O)NC1CC1)OCc1ccccc1 = 5.26
CCOC(=O)/C=C/[C@H](C[C@@H]1CCNC1=O)NC(=O)[C@H](CC(C)C)NC(=O)OCc1ccccc1 = 5.77
CC(C)C[C@H](NC(=O)OCc1ccccc1)C(=O)N[C@@H](CC(C)C)C(=O)N[C@@H](C[C@@H]1CCNC1=O)C(=O)C(=O)NC1CC1 = 7.92
CC(C)C[C@H](NC(=O)[C@H](Cc1ccccc1)NC(=O)OCc1ccccc1)C(=O)N[C@@H](C[C@@H]1CCNC1=O)C(=O)C(=O)NCc1ccccc1 = 7.05
O=C(NC1CC1)C(=O)[C@H](C[C@@H]1CCNC1=O)NC(=O)C1[C@H]2CCC[C@H]2CN1C(=O)OCc1ccccc1 (stereo partly shown) = 6.89
